Quick reference: ADCC EC50, NUGC4-CLDN18.2, PBMC of the listed items.
target: human Claudin 18.2 (CLDN18.2) (human, UniProt P56856-2 1-261); assay: cell-based or functional assay
Value and unit, in that order.

413H9F8-cp2 (antibody, V domains shown, humanized IgG; constant regions not specified) VH: DVQLVESGGGLVQPGGSLRLSCAASGFTFSSFGMHWVRQAPGKGLEWVAYISSGSSPIYYVDKLKGRFTISRDNAKNSLYLQMNSLRAEDTAVYYCARAGYAVRNALDYWGQGTLVTVSS VL: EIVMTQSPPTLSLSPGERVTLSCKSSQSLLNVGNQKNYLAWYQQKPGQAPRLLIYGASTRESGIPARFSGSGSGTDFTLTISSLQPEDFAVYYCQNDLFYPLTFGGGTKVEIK    5.3 nM
364D1A7-H1L1 (antibody, V domains shown, humanized IgG; constant regions not specified) VH: EVQLVESGGGLVQPGGSLRLSCAASGFTFSSFGMHWVRQAPGKGLEWVSYISSGSGSIYYADTVKGRFTISRDNAKNSLYLQMNSLRAEDTAVYYCATSYYYGNALEYWGQGTTVTVSS VL: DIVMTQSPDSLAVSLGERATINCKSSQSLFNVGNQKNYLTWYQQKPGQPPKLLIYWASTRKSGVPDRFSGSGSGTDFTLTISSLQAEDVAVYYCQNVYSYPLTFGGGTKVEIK    13.3 nM

Exercise: Given the binder 413H9F8-H2L2 (antibody, V domains shown, humanized IgG; constant regions not specified) VH: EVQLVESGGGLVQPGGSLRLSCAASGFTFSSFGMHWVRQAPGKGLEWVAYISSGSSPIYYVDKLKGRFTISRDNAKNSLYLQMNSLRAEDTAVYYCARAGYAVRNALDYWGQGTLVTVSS VL: DIVMTQSPDSLAVSLGERATINCKSSQSLLNVGNQKNYLAWYQQKPGQPPKLLIYGASTRESGVPDRFSGSGSGTDFTLTISSLQAEDVAVYFCQNDLFYPLTFGGGTKVEIK , what is its reported ADCC EC50, NUGC4-CLDN18.2, PBMC?
Solution: 6.14 nM
